# study_target: Cathepsin K (Homo sapiens)
# Sequence (P43235 whole entry): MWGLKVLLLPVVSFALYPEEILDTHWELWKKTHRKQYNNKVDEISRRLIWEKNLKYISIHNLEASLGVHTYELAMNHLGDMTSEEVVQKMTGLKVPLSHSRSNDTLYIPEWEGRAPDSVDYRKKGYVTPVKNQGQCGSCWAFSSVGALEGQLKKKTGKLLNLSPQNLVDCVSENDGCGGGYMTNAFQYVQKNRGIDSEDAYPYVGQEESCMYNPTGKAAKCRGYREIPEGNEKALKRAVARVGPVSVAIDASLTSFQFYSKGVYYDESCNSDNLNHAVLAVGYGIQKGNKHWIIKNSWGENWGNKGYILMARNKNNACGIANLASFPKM
# assay_overview: Inhibition of recombinant human cathepsin K
quantity_kind: IC50

Data request: Answer with the recorded IC50 for the molecule listed here: CC(C)C[C@H](NC(=O)c1cc2ccccc2[nH]1)C(=O)N[C@H](C#N)COCc1ccccc1
Data returned: < 1 nM

Data request: Answer with the recorded IC50 for the molecule listed here: CC(C)C[C@H](NC(=O)OCc1ccccc1)C(=O)N[C@H](C#N)Cc1ccc(OC(C)(C)C)cc1
Data returned: 398 nM

Data request: Answer with the recorded IC50 for the molecule listed here: CC(C)C[C@H](NC(=O)OCc1ccccc1)C(=O)N[C@H](C#N)Cc1ccc(OCc2ccccc2)cc1
Data returned: > 1000 nM

Data request: Answer with the recorded IC50 for the molecule listed here: CC(C)C[C@H](NC(=O)c1cc2ccccc2n1C)C(=O)N[C@H](C#N)COCc1ccccc1
Data returned: < 1 nM

###

# study_target: Cathepsin S (Homo sapiens)
# Sequence (P25774 whole entry): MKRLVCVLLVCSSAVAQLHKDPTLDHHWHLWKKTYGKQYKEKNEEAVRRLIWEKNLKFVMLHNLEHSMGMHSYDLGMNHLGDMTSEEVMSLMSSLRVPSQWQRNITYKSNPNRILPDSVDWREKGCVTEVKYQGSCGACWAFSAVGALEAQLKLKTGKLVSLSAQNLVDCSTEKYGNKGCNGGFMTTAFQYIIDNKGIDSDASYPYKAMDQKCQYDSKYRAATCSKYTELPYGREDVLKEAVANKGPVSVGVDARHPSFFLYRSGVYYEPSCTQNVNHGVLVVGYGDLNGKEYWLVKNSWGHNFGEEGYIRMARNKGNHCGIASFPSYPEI
# assay_overview: Inhibition of recombinant human cathepsin S
quantity_kind: IC50

Illustrative cases are given below, each with its answer.
sample_smiles	study_target	value_observed
CC(C)C[C@H](NC(=O)OCc1ccccc1)C(=O)N[C@H](C#N)Cc1ccc(OC(C)(C)C)cc1	Cathepsin S (Homo sapiens)	> 10 µM
Cc1ccc(C[C@@H](C#N)NC(=O)[C@H](CC(C)C)NC(=O)OCc2ccccc2)cc1	Cathepsin S (Homo sapiens)	> 10 µM
Cc1nc[nH]c1CC(=O)N[C@@H](CC(C)C)C(=O)N[C@H](C#N)COCc1ccccc1	Cathepsin S (Homo sapiens)	0.13 µM

Data request: Answer with the recorded IC50 for the compound listed here: CC(C)C[C@H](NC(=O)OCc1ccccc1)C(=O)N[C@H](C#N)Cc1ccc(OCc2ccccc2)cc1
Data returned: > 10 µM

Data request: Answer with the recorded IC50 for the compound listed here: CC(C)C[C@H](NC(=O)OCc1ccccc1)C(=O)N[C@H](C#N)Cc1ccc(C(F)(F)F)cc1
Data returned: > 10 µM

These entries and their values trace back to ChEMBL document CHEMBL1147644.
